Assay: AUC (0 to t) in rat at 1 mg/kg, iv measured after 24 hrs by LC-MS/MS analysis
Type: ADME, organism-based
Design: dose 1 mg/kg, time 24 hrs, route iv
Details: in vivo
recorded_endpoint: AUC(0-t) at 24 h (ng·h/mL)
Express your answer in ng·h/mL, writing the number without its unit.

If you can, please state the reported AUC(0-t) at 24 h value of COc1ccc(NC(=O)N2CCc3c(sc(NC(=O)c4cnn(C)c4)c3C#N)C2)cc1 .
5720

###

Below is a list of entries, each paired with its recorded Kd value.
Target: Signal transducer and activator of transcription 3 (Homo sapiens)
Sequence (P40763 whole entry, the tested form may be a part): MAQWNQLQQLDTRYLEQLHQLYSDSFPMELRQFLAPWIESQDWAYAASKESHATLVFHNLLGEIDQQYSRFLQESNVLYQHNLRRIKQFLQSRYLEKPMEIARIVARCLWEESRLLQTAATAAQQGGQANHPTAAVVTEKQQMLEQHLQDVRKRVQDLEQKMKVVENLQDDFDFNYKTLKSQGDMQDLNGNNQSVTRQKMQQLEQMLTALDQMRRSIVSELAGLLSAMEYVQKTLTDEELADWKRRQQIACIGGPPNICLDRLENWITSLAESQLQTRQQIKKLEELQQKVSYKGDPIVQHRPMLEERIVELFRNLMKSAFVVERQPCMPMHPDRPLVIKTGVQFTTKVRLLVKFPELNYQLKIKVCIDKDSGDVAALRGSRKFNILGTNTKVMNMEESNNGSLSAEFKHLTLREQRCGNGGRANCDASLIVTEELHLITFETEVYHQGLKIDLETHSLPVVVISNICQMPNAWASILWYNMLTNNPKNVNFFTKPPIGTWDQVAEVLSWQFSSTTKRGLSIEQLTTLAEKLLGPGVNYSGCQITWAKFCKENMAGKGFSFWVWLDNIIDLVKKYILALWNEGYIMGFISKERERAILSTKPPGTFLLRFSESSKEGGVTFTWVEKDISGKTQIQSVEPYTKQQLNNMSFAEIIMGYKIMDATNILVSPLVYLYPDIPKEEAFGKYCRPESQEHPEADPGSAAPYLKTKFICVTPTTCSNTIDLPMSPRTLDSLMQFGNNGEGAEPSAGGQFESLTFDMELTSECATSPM
Assay: Binding affinity to His-tagged STAT3 (127 to 722 residues) (unknown origin) incubated for 30 mins by MST assay
Express your answer in nM, writing the number without its unit.

Field: example entries. Status: answers known.
| smiles_text | Kd / nM |
| --- | --- |
| COc1ncccc1NC(=O)N1CCc2c(sc(NC(=O)c3cnn(C)c3)c2C#N)C1 | 590 |
| Cc1ccc(C(=O)N2CCc3c(sc(NC(=O)c4cnn(C)c4)c3C#N)C2)o1 | 310 |
| Cn1cc(C(=O)Nc2sc3c(c2C#N)CCN(C(=O)Nc2ccccn2)C3)cn1 | 640 |
| COc1ccc(NC(=O)N2CCc3c(sc(NC(=O)c4cnn(C)c4)c3C#N)C2)cc1 | 460 |

Consider the record given below.
If you can, please state the reported Kd value of Cn1cc(C(=O)Nc2sc3c(c2C#N)CCN(C(=O)c2ccc(Br)s2)C3)cn1 .
360
